System: IGROV1 ovarian
Experiment: NCI tumour cell line growth inhibition, 48 h
value-kind: TGI

For orientation, consider the following solved cases.
// returns reported TGI for input CCOC(=O)CCC(NC(=O)c1ccc(Oc2nc3ccc(C(F)(F)F)cc3nc2-c2ccccc2)cc1)C(=O)OCC (centres undefined) > 100 µM

Quick check: TGI of `CC(C)[C@@]12C[C@@H](OC(=O)[C@H]3CO3)[C@@](C)(O1)[C@@H]1CC[C@@H](C)[C@H]1[C@@H]2OC(=O)/C=C/c1ccccc1` ? > 83.4 µM

Bench note: what TGI did CC(C)C1OC(=O)C=C1Sc1ccccc1 (centres undefined) show? > 100 µM

Now let's try a different one.
I have this molecule here, COc1ccc2oc3c4c2c1CCC4CCC3=O (centres undefined) , and I need its recorded TGI. > 100 µM

---

Test system: HCC-2998 colon
Assay: NCI tumour cell line growth inhibition, 48 h
value-kind: TGI

Recorded TGI, per entry:
Which measured TGI value corresponds to COCC1OC(OC2C3=C(C(C)C)CCC3(C)/C=C3\C(CCC3(O)COC)C(C)C2O)C(O)C2OC3OC12OC3(C)C1CO1 (stereo unspecified) ? > 100 µM

Reported TGI for `CCCn1c(SCC)c2ccccc2c1-c1nc(F)nc(F)n1` : what is it? > 100 µM

Need TGI, item N#CC(C(=O)/C(=N\Nc1nc(=S)[nH]n1N)C(C#N)c1ccc(Cl)cc1)c1ccc(Cl)cc1 (stereo unspecified) > 100 µM

More entries:
TGI for `COc1cc(/C=C/c2cc(/C=C/c3ccc(O)c(OC)c3)n(-c3c(C)cccc3C)c(=O)n2)ccc1O` ? 9.15 µM

Consider the compound `N#CCCN(CCC#N)c1ccc(C(N=Nc2ccccc2)=Nc2ccccc2)cc1` and give its measured TGI. > 100 µM

If you can, please state the reported TGI value of `CC(C)(C)c1ccc(-c2nc3ccc([N+](=O)[O-])cc3c(=O)o2)cc1` . 33 µM

---

System: COLO 205 colon
Assay: NCI tumour cell line growth inhibition, 48 h
value-kind: TGI

Use these answered entries as a reference point.
Return reported TGI; argument: `COc1ccc(NC(=O)n2nc(N)c3ccccc32)cc1OC` > 100 µM

Data request, read-out TGI, for `CC1=C2C(=O)[C@H]3[C@@H](CC=C4C[C@@H](O)CC[C@@]43C)[C@@H]2CC[C@]12O[C@@H]1C[C@H](C)CN[C@H]1[C@H]2C` > 100 µM

More entries:
Any idea what TGI was measured for `N#Cc1c(-c2ccc([N+](=O)[O-])cc2)cc(-c2ccc(Nc3ccnc4cc(C(F)(F)F)ccc34)cc2)nc1N` ? > 75.9 µM

Requested field: TGI. Item: `CCN(CC)c1cc(/C=C/c2ccc(OC)c(OC)c2)nc2cc(F)c(F)cc12` > 100 µM

---

System: SR leukemia
Assay: NCI tumour cell line growth inhibition, 48 h
Property: TGI; scope: individual molecules

# annotated cases, reported TGI shown
Give its TGI value. Item: O=P(O)(O)c1ccccc1 (tested in a mixture with another compound) > 100 µM

Endpoint output: TGI of `CCCn1c(SCC)c2ccccc2c1-c1nc(F)nc(F)n1` . Value? > 100 µM

Recorded TGI for `CC(C)CCOc1ccc(-c2n[nH]c(C(F)(F)F)c2-c2cncc(C#N)c2)c(O)c1` , please? 11.8 µM

Which value of TGI has been reported for O=C1NC(Cc2c[nH]c3ccccc23)C(=O)N2C(C3CCCCC3)c3[nH]c4ccccc4c3C[C@@H]12 (stereo partly drawn) in the records? 34 µM

Fill in: TGI of `Cc1c(CCOC=O)c(=O)[nH]c2nncn12` is ___ > 100 µM

What does the record list as TGI for `CCOC(=O)C(=O)Nc1ccc(C)cc1C` ? > 100 µM

Look up TGI for this molecule: `Cc1[nH]c(=O)nc(N/N=C/c2ccc(Cl)cc2)c1C(=O)NC(C)(CO)CO` > 100 µM

Would you kindly look at the next entry?
Field request: TGI | item: `CCCCCCCCCCCCCCCCCC1=NCCN1CS(=O)(=O)O` > 100 µM

---

System: NCI-H460 lung
Assay: NCI tumour cell line growth inhibition, 48 h
value-kind: TGI

Below, each entry is followed by its recorded TGI result.
Param item = `CC/C=C1\N=C(c2ccc(Cl)cc2)OC1=O` ; retrieve measured TGI. > 100 µM

I am curious: what TGI value has been reported for NS(=O)(=O)c1cc2c(cc1Cl)NC(Cc1ccccc1)NS2(=O)=O (configuration not stated) ? > 100 µM

Fill in the blank: the reported TGI of CC1(C2(C)OC(=O)c3ccccc32)OC(=O)c2ccccc21 (configuration not stated) is ____. > 100 µM

Others:
What value of measured TGI is listed for `S=C(N/N=C(/c1ccccc1)c1ccccn1)Nc1ccccc1Cl` ? 6.24 µM

// TGI lookup, key: N#CC(C(=O)/C(=N\Nc1nc(=S)[nH]n1N)C(C#N)c1ccc(Cl)cc1)c1ccc(Cl)cc1 (configuration not stated) > 100 µM

Recorded TGI for COc1ccc(N2C(=O)C3ON(C(C(N)=O)c4ccccc4)C(c4ccc(-c5ccccc5)cc4)C3C2=O)cc1 (configuration not stated) , please? > 50 µM

Return reported TGI; argument: `Cn1c(=O)cc(NCc2ccc(Cl)cc2)[nH]c1=O` > 100 µM

Suppose we examine the compound `CCOC(=O)c1sc2nc3sc(N=Nc4ccc(Cl)cc4)c(O)n3c(=S)c2c1C` ; what TGI value has been reported? > 100 µM

Consider the compound `COc1cccc(NC(=S)Nn2c(C)nc3ccccc3c2=O)c1` and give its measured TGI. > 100 µM

Any idea what its TGI is? The compound is `CCCn1c(SCC)c2ccccc2c1-c1nc(F)nc(F)n1` > 100 µM

# query: TGI of entry O=C(CC(=O)N1N=C(N2CCCCC2)CC1c1ccccc1)Nc1ccc(Cl)cc1 (configuration not stated) > 100 µM

Which TGI is listed for `Cc1[nH]c(=O)nc(N/N=C/c2ccc(Cl)cc2)c1C(=O)NC(C)(CO)CO` ? > 100 µM

---

Measured TGI accompanies every entry in the list below.
Tested on: NCI-H226 lung
Assay: NCI tumour cell line growth inhibition, 48 h

These solved cases illustrate the format of a correct answer.
Using the record for COc1ccc(/C(=N/NC(=O)NN)C(c2ccc(OC)cc2)C2(O)CNc3c(Cl)cc(Cl)cc32)cc1 (stereo unspecified) , report its TGI. > 100 µM

Entry under review: O=C1C(CN2CCCCC2)CCCC1CN1CCCCC1 (stereo unspecified) . Reported TGI? > 100 µM

Request the reported TGI associated with `CC(=O)O/N=C/c1ncccc1OC(C)=O` > 100 µM

Entry under review: `COc1cc2c(c(C)c1O)[C@H]1COc3ccccc3[C@H]1O2` . Reported TGI? 34.5 µM

Give the measured TGI of CCC(C)n1cc(C)c2c(C(=O)NCc3c(C)cc(C)[nH]c3=O)cc(Br)cc21 (stereo unspecified) . > 100 µM

Turning now to a further molecule:
Request the reported TGI associated with `CCCCCCCCCCCCCCCCCC1=NCCN1CS(=O)(=O)O` 40.1 µM

---

System: SK-MEL-2 melanoma
Test: NCI tumour cell line growth inhibition, 48 h; in the data active means GI50 below about 0.43 µM; inactive means the rest
Can you answer with just one of these options? TRUE for active, FALSE for inactive

// below: answered molecules
Outcome logged for `OCCCN=NNc1ccc(-c2nc3ccccc3[nH]2)cc1` in this assay: FALSE

Which outcome was entered for the molecule `C=C(C)[C@@H]1CC[C@]2(C)[C@H](C(=O)C=C3[C@@H]4C[C@](C)(C(=O)N5CCN(C)CC5)CC[C@]4(C)CC[C@]32C)[C@@]1(C)CCC#N` in this test? FALSE

Short answer needed: outcome of this test for COc1cccc(C2C(C#N)=C(N)Oc3cc(N)ccc32)c1 (stereo unspecified) ? TRUE

More entries:
I would be grateful if you could indicate the recorded call for `CCN(CC)CCCNc1cccc2c(SCc3ccccc3)ccnc12` . FALSE

What outcome does the record of this test show for `CCCCCCCC/C=C/CCCCCCCC1=NCC[N+]1(CCO)CCO` ? FALSE

Record request — test call for `COc1cc(NCCCCN=C(N)NC(N)=NC(C)C)c2ncccc2c1` FALSE

---

Test system: NCI-H522 lung
Assay: NCI tumour cell line growth inhibition, 48 h
value-kind: TGI

Recorded TGI for `CC1(C)N=C(C(N)=O)c2ncn(-c3ccccc3)c2N1` , please? > 100 µM

Sample `COc1cc(NCCCCN=C(N)NC(N)=NC(C)C)c2ncccc2c1` — what was its TGI? 3.93 µM

Need TGI of `O=[N+]([O-])c1ccc(-c2nc(-c3ccccc3)c(-c3ccccc3)n2-c2ccccc2)cc1` , thanks. > 28.4 µM

// returns reported TGI for input `CC1(C)CC[C@]2(C)CC=C3[C@]4(C)CC[C@H]5C(C)(C)C(=O)CC[C@]5(C)[C@H]4CC[C@@]3(C)[C@H]2C1` > 100 µM

Form field: reported TGI of O=[N+]([O-])c1ccc(C2=NOC(c3ccccc3F)N2C23CC4CC(CC(C4)C2)C3)cc1 (stereo not drawn) > 100 µM

Which value of TGI has been reported for `O=C(/C=C/c1ccc(Cl)cc1)Oc1ccc(/C=C2\CCCCC2=O)cc1` in the records? > 100 µM

Need TGI of O=c1[nH]c(=O)n(C2CC(O)C(CO)O2)cc1OCCCc1ccccc1 (stereo not drawn) , thanks. > 100 µM

// returns reported TGI for input COC1=CC(=O)[C@H]2[C@H](C)C(c3ccccc3)[C@@]2(C)C1=O (stereo partly drawn) > 100 µM

For the next question, use this compound.
Any idea what TGI was measured for COC(=O)C1=C(C(=O)OC)C2(OC(C)=O)c3ccccc3-c3ccccc3C12 (stereo not drawn) ? 2.8 µM
